This collection of values is drawn from patent US12240855B2.

# Tested on: PTDSS2-KO HCT116 cell-subcutaneous transplanted model
# procedureSummary: Test Example 4: Antitumor activity on PTDSS2-KO HCT116 cell-subcutaneous transplanted model
# Type: in vivo, female BALB/c-nu/nu mice
# condition: 40 mg/kg, oral, QD × 13, test end date
readoutName: TGI (%)

>>> numericreadout("Cc1cc(Oc2ccc(C3c4c(-c5cccc6[nH]c(=O)oc56)n[nH]c4C(=O)N3CC(C)(F)F)cc2)ccc1OC(F)(F)F (single isomer, unassigned; (-)) [Example 32]")
98
>>> numericreadout("CC(F)(F)CN1C(=O)c2[nH]nc(-c3cccc4[nH]c(=O)oc34)c2C1c1ccc(Oc2ccc(OC(F)(F)F)c(Cl)c2)cc1 (single isomer, unassigned; (-)) [Example 31]")
88
>>> numericreadout("CC(F)(F)CN1C(=O)c2[nH]nc(-c3cccc4[nH]c(=O)oc34)c2C1c1ccc(Oc2ccc(OC(F)(F)F)c(C(F)(F)F)c2)cc1 (single isomer, unassigned; (-)) [Example 33]")
98
>>> numericreadout("CC(F)(F)CN1C(=O)c2[nH]nc(-c3cccc4[nH]c(=O)oc34)c2C1c1ccc(Oc2ccc(OC(F)(F)F)cc2)cc1 (single isomer, unassigned; (-)) [Example 30]")
83
>>> numericreadout("CC(F)(F)CN1C(=O)c2[nH]nc(-c3cccc4[nH]c(=O)oc34)c2[C@@H]1c1ccc(Oc2cc(C(F)(F)F)cc(C(F)(F)F)c2)cc1 [Example 42]")
99
>>> numericreadout("CC(F)(F)CN1C(=O)c2[nH]nc(-c3cccc4[nH]c(=O)oc34)c2C1c1ccc(Oc2cc(Cl)cc(OC(F)(F)F)c2)cc1 (single isomer, unassigned; (-)) [Example 34]")
96
